Where do the numbers come from? From patent US11236084B2.

- TARGET SYSTEM: recombinant human NF-kappaB-inducing kinase (NIK/MAP3K14) (Homo sapiens, UniProt Q99558)
- Sequence (Q99558 whole entry): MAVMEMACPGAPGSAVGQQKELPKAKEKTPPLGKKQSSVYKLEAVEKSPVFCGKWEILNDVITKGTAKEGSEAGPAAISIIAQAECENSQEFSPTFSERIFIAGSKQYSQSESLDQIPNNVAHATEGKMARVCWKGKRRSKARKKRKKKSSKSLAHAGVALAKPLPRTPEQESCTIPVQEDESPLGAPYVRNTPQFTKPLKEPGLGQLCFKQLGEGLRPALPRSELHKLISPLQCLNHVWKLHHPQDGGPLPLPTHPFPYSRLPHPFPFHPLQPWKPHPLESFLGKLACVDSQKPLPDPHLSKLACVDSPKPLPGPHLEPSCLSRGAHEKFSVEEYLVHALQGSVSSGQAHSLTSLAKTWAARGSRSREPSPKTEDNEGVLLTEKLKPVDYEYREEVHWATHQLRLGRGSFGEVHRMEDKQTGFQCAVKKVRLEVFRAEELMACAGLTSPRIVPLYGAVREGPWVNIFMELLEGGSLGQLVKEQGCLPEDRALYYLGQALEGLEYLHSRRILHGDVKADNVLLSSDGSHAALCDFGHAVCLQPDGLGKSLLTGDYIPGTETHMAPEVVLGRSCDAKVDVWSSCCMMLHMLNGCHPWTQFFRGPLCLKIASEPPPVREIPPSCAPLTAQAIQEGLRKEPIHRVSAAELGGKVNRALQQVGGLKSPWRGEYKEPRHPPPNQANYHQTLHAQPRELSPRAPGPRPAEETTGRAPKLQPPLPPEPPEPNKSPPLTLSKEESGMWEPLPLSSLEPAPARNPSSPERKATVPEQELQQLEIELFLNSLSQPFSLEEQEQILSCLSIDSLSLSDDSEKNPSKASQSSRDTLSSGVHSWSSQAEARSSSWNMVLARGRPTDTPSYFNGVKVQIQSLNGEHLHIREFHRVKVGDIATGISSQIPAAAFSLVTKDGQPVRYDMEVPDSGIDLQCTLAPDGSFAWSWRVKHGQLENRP
- TEST DETAILS: Biological Assay B: inhibition of auto-phosphorylation of recombinant human NIK/MAP3K14 (AlphaScreen), performed at 2 locations
- Format: biochemical
- SETTINGS: location 1; AlphaScreen auto-phosphorylation; averaged values; read-out: Assay B location 1 IC50
ASSAY READOUT: IC50 (nM)

I. COc1cc(N2CC3(CCOCC3)C2)c(Cl)cc1Nc1nccc(-c2cnc3c(c2)C(C)(CO)CN3)n1 (stereo not drawn) [Compound 3]
II. COc1cc(S(C)(=O)=O)c(Cl)cc1Nc1nccc(-c2cnc3c(c2)C(C)(CO)CN3)n1 (stereo not drawn)
## Input Please let me know which one, I or II , has a lower measured IC50 value. Field: selected label. Fill in the label of the entry you choose.
## Output II
(II: 6.5 nM, I: 10 nM)

* * *

- TARGET SYSTEM: recombinant human NF-kappaB-inducing kinase (NIK/MAP3K14) (Homo sapiens, UniProt Q99558)
- TEST DETAILS: Biological Assay B: inhibition of auto-phosphorylation of recombinant human NIK/MAP3K14 (AlphaScreen), performed at 2 locations
- Format: biochemical
- SETTINGS: location 2; AlphaScreen auto-phosphorylation; averaged values; read-out: Assay B location 2 IC50
ASSAY READOUT: IC50 (nM)

## Input Query: IC50; subject: COc1cc(N2CC(OC)C2)c(F)cc1Nc1nccc(-c2cnc3c(c2)C(C)(CO)CN3)n1 (stereo not drawn) [Compound 270]
## Output 5.8

## Input Fill in the blank: the reported IC50 of COc1cc(OCCN(C)C)c(Cl)cc1Nc1nccc(-c2cnc3c(c2)C(C)(CO)CN3)n1 (stereo not drawn) is ____.
## Output 3.1

## Input Name the reported IC50 value associated with the molecule CN(C)CCOc1cc(N2CCOCC2)c(F)cc1Nc1nccc(-c2cnc3c(c2)C(C)(CO)CN3)n1 (single isomer, unassigned) [Compound 297]
## Output 309

## Input What value of measured IC50 is listed for Cc1ccc(C#N)cc1Nc1nccc(-c2cnc3c(c2)C(C)(CO)CN3)n1 (stereo not drawn) ?
## Output 5

## Input If you can, please state the reported IC50 value of COc1cc(N2CC(OC)C2)c(F)cc1Nc1nccc(-c2cnc3c(c2)C(C)(CO)CN3)n1 (single isomer, unassigned) [Compound 288] .
## Output 57.5

P. COc1cc(C(=O)NC(C)(C)CO)ccc1Nc1nccc(-c2cnc3c(c2)C(C)(CO)CN3)n1 (stereo not drawn)
Q. CN(C)CCOc1cc(N2CCOCC2)c(Cl)cc1Nc1nccc(-c2cnc3c(c2)C(C)(CO)CN3)n1 (stereo not drawn) [Compound 371]
## Input Compare the recorded IC50 of P and Q ; state which is larger. Your answer should be the label attached to the chosen record.
## Output Q
(Q: 209 nM, P: 18.6 nM)

* * *

- TARGET SYSTEM: recombinant human NF-kappaB-inducing kinase (NIK/MAP3K14) (Homo sapiens)
- TEST DETAILS: Biological Assay B: inhibition of auto-phosphorylation of recombinant human NIK/MAP3K14 (AlphaScreen), performed at 2 locations
- Format: biochemical
- SETTINGS: location 1; NIK auto-phosphorylation, AlphaScreen; averaged values; read-out: Assay B location 1 IC50
pIC50: −log10 of the molar value.
ASSAY READOUT: pIC50

## Input # pIC50 lookup, item COc1cc(C(=O)NC2CCOCC2)ccc1Nc1ncc(F)c(-c2cnc3c(c2)C(C)(CO)CN3)n1 (single isomer, unassigned) [Compound 352]
## Output 7.47

## Input Quick one: pIC50 for `CN1CCC(Oc2ccc(Cl)cc2Nc2nccc(-c3cnc4c(c3)C(C)(C)CN4)n2)CC1` ?
## Output 7.72

## Input Quick check: pIC50 of COc1cc(N2CCC(O)CC2)c(Cl)cc1Nc1nccc(-c2cnc3c(c2)C(C)(CO)CN3)n1 (single isomer, unassigned) [Compound 343] ?
## Output 7.72

P. COc1cc(C(=O)NC2CCOCC2)ccc1Nc1ncc(Cl)c(-c2cnc3c(c2)C(C)(CO)CN3)n1 (single isomer, unassigned) [Compound 351]
Q. Cc1ccc(Cl)cc1Nc1nccc(-c2cnc3c(c2)C(C)(CO)CN3)n1 (centres unmarked)
## Input Between the entries labelled P and Q , which has a larger pIC50 value on record? Reply with the label of the item you choose.
## Output Q

* * *

- TARGET SYSTEM: recombinant human NF-kappaB-inducing kinase (NIK/MAP3K14) (Homo sapiens, UniProt Q99558)
- TEST DETAILS: Biological Assay A: inhibition of recombinant human NF-kappaB-inducing kinase (NIK/MAP3K14) activity (MBP phosphorylation, Mesoscale)
- SETTINGS: MSD MBP; averaged over all measurements on all batches; read-out: Assay A Biochemical (MSD MBP) IC50
pIC50: −log10 of the molar value.
ASSAY READOUT: pIC50

Check out these entries, answers already filled in.
## Input Name the reported pIC50 value associated with the compound COc1cc(C(=O)NC2CCOCC2)ccc1Nc1nccc(-c2cnc3c(c2)C(C)(CO)CN3)n1 (stereo not drawn)
## Output 7.92

## Input // returns reported pIC50 for input `COc1cc(Nc2nccc(-c3cnc4c(c3)C(C)(C)CN4)n2)c(C)c(C(=O)N2CCOCC2)c1`
## Output 7.82

## Input Quick one: pIC50 of `CC1(C)CNc2ncc(-c3ccnc(Nc4ccc(C(=O)NC5CCOCC5)cc4C(F)F)n3)cc21` ?
## Output 6.89

## Input Name the recorded pIC50 for `CC1(C)CNc2ncc(-c3ccnc(Nc4ccc(C(=O)NC5CCOCC5)cc4Cl)n3)cc21` .
## Output 7.21

## Input Given COc1cc(C(=O)N2CCC(OC)CC2)ccc1Nc1nccc(-c2cnc3c(c2)C(C)(CO)CN3)n1 (stereo not drawn) , state its recorded pIC50.
## Output 8.35

I. CC(=O)NCc1ccc(Nc2nccc(-c3cnc4c(c3)C(C)(C)CN4)n2)c(F)c1
II. COCC(=O)NCc1cccc(Nc2nccc(-c3cnc4c(c3)C(C)(C)CN4)n2)c1C
## Input Compare I and II by numeric pIC50 and name the larger one. Give the label under which the chosen entry appears.
## Output II
(II: 7.97, I: 7.45)

* * *

- TARGET SYSTEM: recombinant human NF-kappaB-inducing kinase (NIK/MAP3K14) (Homo sapiens, UniProt Q99558)
- TEST DETAILS: Biological Assay A: inhibition of recombinant human NF-kappaB-inducing kinase (NIK/MAP3K14) activity (MBP phosphorylation, Mesoscale)
- SETTINGS: MSD MBP; averaged over all measurements on all batches; read-out: Assay A Biochemical (MSD MBP) IC50
pIC50: −log10 of the molar value.
ASSAY READOUT: pIC50

## Input Query: pIC50; subject: `COCCNC(=O)c1cc(OC)cc(Nc2nccc(-c3cnc4c(c3)C(C)(C)CN4)n2)c1C`
## Output 7.80

## Input What value of pIC50 has been recorded for this entry: Cc1cc(C(=O)N2CCOCC2)ccc1Nc1nccc(-c2cnc3c(c2)C(C)(CO)CN3)n1 (centres unmarked)
## Output 8.03

A. COC1CCN(C(=O)c2ccc(Nc3nccc(-c4cnc5c(c4)C(C)(C)CN5)n3)c(C)c2)CC1
B. Cc1cc(C(=O)N2CCS(=O)(=O)CC2)ccc1Nc1nccc(-c2cnc3c(c2)C(C)(C)CN3)n1
## Input I need your help: which of the pair A , B has higher pIC50? Use the label to indicate which entry you chose.
## Output B

* * *

- TARGET SYSTEM: recombinant human NF-kappaB-inducing kinase (NIK/MAP3K14) (Homo sapiens, UniProt Q99558)
- TEST DETAILS: Biological Assay B: inhibition of auto-phosphorylation of recombinant human NIK/MAP3K14 (AlphaScreen), performed at 2 locations
- Assay type: biochemical
- SETTINGS: location 1; AlphaScreen auto-phosphorylation; averaged values; read-out: Assay B location 1 IC50
ASSAY READOUT: IC50 (nM)

Here are 3 molecules together with their reported answers.
## Input Tell me the measured IC50 of CC1(CO)CNc2ncc(-c3ccnc(Nc4cc(Cl)ccc4S(C)(=O)=O)n3)cc21 (centres unmarked) , please.
## Output 269

## Input Fill in the blank: the reported IC50 of COc1cc(N2CC3(CCOCC3)C2)c(F)cc1Nc1nccc(-c2cnc3c(c2)C(C)(CO)CN3)n1 (centres unmarked) [Compound 7] is ____.
## Output 15.5

## Input Could you share which IC50 value was measured for COc1cc(C(=O)N2CCS(=O)(=O)CC2)ccc1Nc1nccc(-c2cnc3c(c2)C(C)(CO)CN3)n1 (centres unmarked) ?
## Output 10

A. Cc1cc(C(=O)NC2CCOCC2)ccc1Nc1nccc(-c2cnc3c(c2)C(C)(CO)CN3)n1 (centres unmarked)
B. COc1cc(N2CCN(C)CC2)c(Cl)cc1Nc1nccc(-c2cnc3c(c2)C(C)(CO)CN3)n1 (single isomer, unassigned) [Compound 291]
## Input In the pair A and B , the larger recorded IC50 belongs to which? API: response body contains the label of the selected item.
## Output A
